These entries and their values trace back to ChEMBL document CHEMBL1130304.

Listed below: IC50 values for each entry.
- assayRemarks: Inhibitory concentration of compound was determined against KB cells
- Format: functional, cell-based, Homo sapiens

smilesData: CC[C@]12CCCn3c(C(=O)O)cc(c31)-c1ccccc1NC(=O)CC2
IC50: 75000 nM
//
smilesData: CC[C@]12CCCn3ccc(c31)-c1ccccc1NC(=O)CC2
IC50: 500 nM
//
smilesData: CC[C@@]12CCCNc3ccccc3-c3ccn(c31)CCC2
IC50: 1000 nM
//
smilesData: CC[C@]12CCCn3c(C(=O)OCc4ccc(OC)c(OC)c4OC)cc(c31)-c1ccccc1NC(=O)CC2
IC50: 20000 nM
//
smilesData: CC[C@@]12CCC(=O)Nc3ccccc3-c3ccn(c31)C(=O)CC2
IC50: 3000 nM

---

- assayRemarks: Inhibitory concentration of compound was determined against KB cells
- Type: functional, cell-based, Homo sapiens
Rule: IC50 below 20 µM gives Criterion met. Equal to or above 20 µM gives Criterion not met.

compound: CC[C@]12CCCn3c(C(=O)C(F)(F)F)cc(c31)-c1ccccc1NC(=O)CC2
classLabel: Criterion met
//
compound: CC[C@]12CCCn3c(C(=O)OC)cc(c31)-c1ccccc1NC(=O)CC2
classLabel: Criterion met
//
compound: CC[C@]12CCCn3ccc(c31)-c1ccccc1/N=C(/S)CC2
classLabel: Criterion met
//
compound: CC[C@@]12CCC(=O)Nc3ccccc3-c3ccn(c31)C(O)CC2 (some centres not stated)
classLabel: Criterion met
//
compound: CC[C@]12CCCn3c(C(=O)C(Cl)(Cl)Cl)cc(c31)-c1ccccc1NC(=O)CC2
classLabel: Criterion not met
//
compound: CC[C@@]12CCCN(C(=O)OC(C)(C)C)c3ccccc3-c3ccn(c31)CCC2
classLabel: Criterion met
//
compound: CC[C@]12CCCn3ccc(c31)-c1ccccc1N(C)C(=O)CC2
classLabel: Criterion not met

---

Listed below: Ratio values for each entry.
- assayRemarks: Relative activity against the cold-induced disassembly of microtubules with respect to rhazinilam (IC50=2*10e-6M).
- Type: functional

compound: CC[C@]12CCCn3ccc(c31)-c1ccccc1N(CC(=O)O)C(=O)CC2
Ratio: 80
//
compound: CC[C@@]12CCC(=O)Nc3ccccc3-c3ccn(c31)C(=O)CC2
Ratio: 10
//
compound: CC[C@@]12CCCNc3ccccc3-c3ccn(c31)CCC2
Ratio: 20
//
compound: CC[C@]12CCCn3ccc(c31)-c1ccccc1N(C(=O)OC(C)(C)C)C(=O)CC2
Ratio: 80
//
compound: CC[C@@]12CCCN(C(=O)OC(C)(C)C)c3ccccc3-c3ccn(c31)CCC2
Ratio: 80
//
compound: CC[C@]12CCCn3c(C(=O)C(Cl)(Cl)Cl)cc(c31)-c1ccccc1NC(=O)CC2
Ratio: 8
//
compound: CC[C@]12CCCn3ccc(c31)-c1ccccc1N(C)C(=O)CC2
Ratio: 4
//
compound: CC[C@]12CCCn3ccc(c31)-c1ccccc1N(CC(=O)OCc1ccccc1)C(=O)CC2
Ratio: 80
//
compound: CC[C@]12CCCn3c(C(=O)OCc4ccc(OC)c(OC)c4OC)cc(c31)-c1ccccc1NC(=O)CC2
Ratio: 7
//
compound: CC[C@]12CCCn3c(C=O)cc(c31)-c1ccccc1NC(=O)CC2
Ratio: 6
//
compound: CC[C@]12CCCn3ccc(c31)-c1cc(Br)ccc1NC(=O)CC2
Ratio: 100
//
compound: CC[C@]12CCCn3ccc(c31)-c1ccccc1/N=C(/S)CC2
Ratio: 50
//
compound: CC[C@@]12CCCN(C(C)=O)c3ccccc3-c3ccn(c31)CCC2
Ratio: 80
//
compound: CC[C@@]12CCC(=O)Nc3ccccc3-c3ccn(c31)C(O)CC2 (some centres undefined)
Ratio: 15
